Tested on: NCI-H441
MEASUREMENT DESCRIPTION: Pemetrexed cytotoxicity test upon suppression of expression of MYT1
Type: cell-based
CONDITION PARAMETERS: Homo sapiens, read-out: IC50 of pemetrexed, MYT1 #16; NCI-H441 (RB1 wild-type); MYT1 siRNA #16 10 nM; 7 days
MEASUREMENT LABEL: IC50 (nM)
Respond with the bare value in nM.

Reported IC50 for Nc1nc2[nH]cc(CCc3ccc(C(=O)N[C@@H](CCC(=O)O)C(=O)O)cc3)c2c(=O)[nH]1 [pemetrexed] : what is it?
95.6

----------
Test system: NCI-H292
MEASUREMENT DESCRIPTION: Pemetrexed cytotoxicity test upon suppression of expression of MYT1
Format: cell-based
CONDITION PARAMETERS: Homo sapiens, read-out: IC50 of pemetrexed, MYT1 #16; NCI-H292 (RB1 wild-type); MYT1 siRNA #16 10 nM; 7 days
MEASUREMENT LABEL: pIC50
Keep it numeric: pIC50 is minus log10 of the concentration in mol/L.

Param readout = pIC50; param system = NCI-H292; param query = Nc1nc2[nH]cc(CCc3ccc(C(=O)N[C@@H](CCC(=O)O)C(=O)O)cc3)c2c(=O)[nH]1 [pemetrexed] ; response: value
7.15

----------
System: NCI-H2110
MEASUREMENT DESCRIPTION: Pemetrexed cytotoxicity test upon suppression of expression of MYT1
Assay type: cell-based
CONDITION PARAMETERS: read-out: IC50 of pemetrexed, MYT1 #16; NCI-H2110 (RB1 mutant); MYT1 siRNA #16 10 nM; 7 days
MEASUREMENT LABEL: pIC50
Keep it numeric: pIC50 is minus log10 of the concentration in mol/L.

Param readout = pIC50; param system = NCI-H2110; param query = Nc1nc2[nH]cc(CCc3ccc(C(=O)N[C@@H](CCC(=O)O)C(=O)O)cc3)c2c(=O)[nH]1 [pemetrexed] ; response: value
7.98

----------
Tested on: NCI-H1666
MEASUREMENT DESCRIPTION: Pemetrexed cytotoxicity test upon suppression of expression of MYT1
Format: cell-based
CONDITION PARAMETERS: Homo sapiens, read-out: IC50 of pemetrexed, MYT1 #16; NCI-H1666 (RB1 wild-type); MYT1 siRNA #16 10 nM; 7 days
MEASUREMENT LABEL: IC50 (µM)
Respond with the bare value in µM.

Param readout = IC50; param system = NCI-H1666; param query = `Nc1nc2[nH]cc(CCc3ccc(C(=O)N[C@@H](CCC(=O)O)C(=O)O)cc3)c2c(=O)[nH]1` ; response: value
0.473

----------
System: EKVX
MEASUREMENT DESCRIPTION: Pemetrexed cytotoxicity test upon suppression of expression of MYT1
Assay type: cell-based
CONDITION PARAMETERS: Homo sapiens, read-out: IC50 of pemetrexed, MYT1 #18; EKVX (RB1 wild-type); MYT1 siRNA #18 10 nM; 7 days
MEASUREMENT LABEL: IC50 (nM)
Respond with the bare value in nM.

Param readout = IC50; param system = EKVX; param query = Nc1nc2[nH]cc(CCc3ccc(C(=O)N[C@@H](CCC(=O)O)C(=O)O)cc3)c2c(=O)[nH]1 [pemetrexed] ; response: value
263

Numbers sourced from patent US20240293379A1.
